These measurements were taken from ChEMBL document CHEMBL1201862.

Below is a list of entries, each paired with its recorded GI50 value.
- System: HCC 2998
- Procedure summary: NCI tumour cell line growth inhibition, 48 h
Calls of active or inactive are those of the source. Rule as the data show it: active = GI50 up to about 1.1 µM and inactive = higher.

1) CCC1(O)C(=O)OCc2c1cc1n(c2=O)Cc2cc3ccccc3nc2-1 (stereo not given) ... 0.895 µM (active)
2) O=C(CCCNC(=O)OCc1ccccc1)OCc1ccc2c(c1)C(=O)c1ccccc1C2=O ... > 100 µM (inactive)
3) Nc1c(S(=O)(=O)O)cc(Nc2cccc(S(=O)(=O)/C=C/S(=O)(=O)O)c2)c2c1C(=O)c1ccccc1C2=O ... > 100 µM (inactive)
4) CN(C)c1ccc(/C=C/C=c2/c3ccccc3n3c2cc(-c2ccccc2)[n+]3C)cc1 ... 0.303 µM (active)
5) Cc1[nH]c(=O)[nH]c(=O)c1/C=C/C(=O)NC(CO)C[S+]([O-])C[S+](C)[O-] (stereo not given) ... 9.62 µM (inactive)

Moving on to the next compound.
Prompt: For the compound CCC(=O)NC(OCC1(CC)COC1)(C(F)(F)F)C(F)(F)F , what GI50 is on record?
Response: > 100 µM (inactive)
